src = ChEMBL document CHEMBL5260832

Entries and their Activity
- assay_protocol: Hepatotoxicity in D-GaIN induced Wistar rat assessed as change in GTP leakage level for 10 days relative to control
- Assay type: toxicity
- condition_summary: in vivo, 240 h, time 10 day
The reply should contain only the number, in %.

Use the examples below as a reference point.
Would you mind telling me what Activity value was observed for CC1(C)CC[C@]2(C)CC[C@]3(C)C(=CC[C@@H]4[C@@]5(C)CC[C@H](O)C(C)(C)[C@@H]5CC[C@]43C)[C@@H]2C1 [beta-AMYRIN] ?
49.4

And for CC1(C)CC[C@]2(C)CC[C@]3(C)C(=CC[C@@H]4[C@@]5(C)CC[C@@H](O)C(C)(C)[C@@H]5CC[C@]43C)[C@@H]2C1 ?
5.3

And for C[C@H]1[C@H](C)CC[C@@]2(C)[C@@H]1C1=CC[C@@H]3[C@@]4(C)CC[C@@H](O)C(C)(C)[C@@H]4CC[C@@]3(C)[C@]1(C)C[C@@H]2O ?
22.7

Next:
Would you mind telling me what Activity value was observed for C[C@H]1[C@H](C)CC[C@@]2(C)[C@@H]1C1=CC[C@@H]3[C@@]4(C)CC[C@H](O)C(C)(C)[C@@H]4CC[C@@]3(C)[C@]1(C)C[C@@H]2O ?
46.7
